The reported measurements were obtained from patent US20240417458A1.

What kon was measured for each of the following?
- EXPERIMENTAL_TARGET: T1, soluble rat RGMa (rat, UniProt D4A188 48-421)
- T1 construct: Soluble antigen in BIAcore
- T1 sequence: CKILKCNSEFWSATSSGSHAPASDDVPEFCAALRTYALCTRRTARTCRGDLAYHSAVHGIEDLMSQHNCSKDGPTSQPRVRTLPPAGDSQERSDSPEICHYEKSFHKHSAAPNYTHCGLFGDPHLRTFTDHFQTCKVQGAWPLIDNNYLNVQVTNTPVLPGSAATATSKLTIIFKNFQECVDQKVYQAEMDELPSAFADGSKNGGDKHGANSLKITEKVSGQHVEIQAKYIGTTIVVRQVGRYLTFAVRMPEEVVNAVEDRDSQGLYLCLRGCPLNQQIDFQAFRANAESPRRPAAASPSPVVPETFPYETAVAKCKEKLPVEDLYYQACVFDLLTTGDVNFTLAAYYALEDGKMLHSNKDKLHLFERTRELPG
- ASSAY_NOTES: SPR (BIAcore);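 also: binding kinetics and affinity of anti-HJV antibodies toward soluble rat RGMa, determined by SPR on a BIAcore instrument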
Give bare numbers, in M⁻¹ s⁻¹.

List kon for every entry below, keeping the order given.
1. hHA-001 (antibody, human IgG1, kappa, L234A L235A, V domains shown, hIgG1 constant region with L234A, L235A, kappa) VH: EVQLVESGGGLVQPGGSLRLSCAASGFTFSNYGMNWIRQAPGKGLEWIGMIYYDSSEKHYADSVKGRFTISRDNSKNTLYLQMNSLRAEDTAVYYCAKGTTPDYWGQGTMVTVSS VL: DVVLTQSPLSLPVTLGQPASISCRSSQSLETSDGDTFLEWFQQRPGQSPRLLIYEVSTRFSGVPDRFSGSGSGTDFTLKISRVEAEDVGVYYCFQVTHDPMTFGQGTKLEIKR
2. hHA-005 (antibody, human IgG1, kappa, L234A L235A, V domains shown, hIgG1 L234A, L235A, kappa) VH: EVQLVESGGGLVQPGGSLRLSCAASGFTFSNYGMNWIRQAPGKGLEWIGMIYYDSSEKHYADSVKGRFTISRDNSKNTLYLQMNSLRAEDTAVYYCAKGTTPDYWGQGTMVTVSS VL: DVVLTQSPLSLPVTLGQPASISCRSSQSLEESDGYTFLEWFQQRPGQSPRLLIYDVSERFSGVPDRFSGSGSGTDFTLKISRVEAEDVGVYYCFQATYDPLTFGQGTKLEIKR
3. hHA-006 (antibody, human IgG1, kappa, L234A L235A, V domains shown, hIgG1 L234A, L235A, kappa) VH: EVQLVESGGGLVQPGGSLRLSCAASGFTFSYYGMNWIRQAPGKGLEWIGMIYYDSSEKHYADSVKGRFTISRDNSKNTLYLQMNSLRAEDTAVYYCAKGTTPDYWGQGTMVTVSS VL: DVVLTQSPLSLPVTLGQPASISCRSSQSLEDSDGGTFLEWFQQRPGQSPRLLIYDVSSRFSGVPDRFSGSGSGTDFTLKISRVEAEDVGVYYCFQATHDPLTFGQGTKLEIKR
4. hHA-004 (antibody, human IgG1, kappa, L234A L235A, V domains shown, hIgG1 L234A, L235A, kappa) VH: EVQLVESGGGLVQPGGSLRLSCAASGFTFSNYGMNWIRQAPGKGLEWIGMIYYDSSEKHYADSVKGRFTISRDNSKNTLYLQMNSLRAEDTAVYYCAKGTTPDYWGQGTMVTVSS VL: DVVLTQSPLSLPVTLGQPASISCRSSQSLESSDGDTFLEWFQQRPGQSPRLLIYDVSTRFSGVPDRFSGSGSGTDFTLKISRVEAEDVGVYYCFQVTHDPVTFGQGTKLEIKR
5. hHA-010 (antibody, human IgG1, kappa, L234A L235A, V domains shown, hIgG1 L234A, L235A, kappa) VH: EVQLVESGGGLVQPGGSLRLSCAASGFTFSNYGMNWVRQAPGKGLEWIGMIYYDSSEKHYADSVKGRFTISRDNSKNTLYLQMNSLRAEDTAVYYCAKGTTPDKWGQGTMVTVSS VL: DVVLTQSPLSLPVTLGQPASISCRSSQSLEESDGYTFLEWFQQRPGQSPRLLIYEVSHRFSGVPDRFSGSGSGTDFTLKISRVEAEDVGVYYCFQATHDPLTFGQGTKLEIKR

1: 1.2e+06; 2: 1.4e+06; 3: 940000; 4: 1.1e+06; 5: 660000

Could you please provide reported kon for hHA-009 (antibody, human IgG1, kappa, L234A L235A, V domains shown, hIgG1 L234A, L235A, kappa) VH: EVQLVESGGGLVQPGGSLRLSCAASGFTFSNYGMNWVRQAPGKGLEWIGMIYYDSSEKHYADSVKGRFTISRDNSKNTLYLQMNSLRAEDTAVYYCAKGTTPDYWGQGTMVTVSS VL: DVVLTQSPLSLPVTLGQPASISCRSSQSLADSDGDTFLHWFQQRPGQSPRLLIYAVSHRFSGVPDRFSGSGSGTDFTLKISRVEAEDVGVYYCFQATHDPVTFGQGTKLEIKR ? Thanks!
680000
